src = ChEMBL document CHEMBL1201862

- Tested on: SK-MEL-5
- testDetails: NCI tumour cell line growth inhibition, 48 h
Calls of active or inactive are those of the source. Rule as the data show it: active = GI50 up to about 1.1 µM and inactive = higher.
Would you mind answering with one of these outcomes? class 1 = active, class 0 = inactive

Some solved cases for reference:
compound="C=CCN(CC=C)CC(C(C)=O)C(c1ccccc1)c1c(O)c2ccccc2oc1=O (stereo not drawn)" categorylabel="class 0"
compound="COC(=O)C(=O)C(CC(=O)Nc1cc(Cl)ccc1Cl)C(=O)OC (stereo not drawn)" categorylabel="class 0"
compound=CC1(C)[C@@H]2CC[C@@]1(C)[C@H](O)[C@@H]2SCc1ccccc1 categorylabel="class 0"
compound=CCOC(=O)Nc1ccc(S(=O)(=O)OC)cc1.CCOC(=O)Nc1ccc(S(=O)(=O)OC)cc1.NC(=O)NCCO categorylabel="class 0"

Enquiry: For this compound, state the assay outcome: `CCCCC(=O)Nc1ccc2cc(C(=O)OC)c(ON3C(=O)c4ccccc4C3=O)nc2n1`
Return: class 0

Enquiry: Hi, do you know how OC1C[C@H](c2ccccc2)C2(C(O)c3ccccc3C2O)[C@@H](c2ccccc2)C1 (stereo partly drawn) came out in this test?
Return: class 0

Enquiry: Tell me the recorded outcome of this test for `O=C1NC(=N/c2ccccc2)/C(=N\c2ccccc2)N1c1ccccc1` .
Return: class 0

====

Reported GI50 values for a set of compounds
- System: IGROV-1
- testDetails: NCI tumour cell line growth inhibition, 48 h
Activity calls are given as the source filed them. Cut-off read from the data, not from the text of the source: active = GI50 up to about 1.1 µM and inactive = higher.

Use these answered entries as a reference point.
compound="Nc1nc(Cl)c(N)c(NCC2(CO)CCC(CCc3ccccc3)C2)n1 (stereo not given)" reportedresult="22.8 µM (inactive)"
compound="CC(=O)C(CN(C(C)C)C(C)C)C(c1ccccc1)c1c(O)c2ccccc2oc1=O (stereo not given)" reportedresult="> 100 µM (inactive)"
compound="COc1cc(OC)c(CSCC(NC(=O)OCC2c3ccccc3-c3ccccc32)C(=O)O)c(OC)c1 (stereo not given)" reportedresult="> 10 µM (inactive)"
compound="CC(C)(C)OC(=O)NC(Cc1ccc(OCc2ccccc2)cn1)C(=O)NCc1ccccc1 (stereo not given)" reportedresult="32.3 µM (inactive)"

Enquiry: Please indicate GI50 recorded for CC(=O)CCC1(C(=O)OCC(C)C)CCCC1=O (stereo not given)
Return: > 100 µM (inactive)

====

- System: RXF 393
- testDetails: NCI tumour cell line growth inhibition, 48 h
Active and inactive are the calls of the source. Rule as the data show it: active = GI50 up to about 1.1 µM and inactive = higher.
We begin with a simple list: items and their reported GI50.

molecule="CCOC(=O)C1C[C@H]2CO[C@H](c3ccccc3)N2C1=O (stereo partly specified)" reportedresult="> 100 µM (inactive)"
molecule=O=C(N[C@H]1CC2(C=C(I)C(=O)C(I)=C2)OC1=O)OCc1ccccc1 reportedresult="15.2 µM (inactive)"
molecule="CC(CC[C@@H](C)C1CCC2[C@@H]3CC(O)C4CC(O)[C@@H](O)C[C@]4(C)C3CC[C@@]21C)C(C)(C)C (stereo partly specified)" reportedresult="> 100 µM (inactive)"
molecule="COC(=O)C1=C(OC(=O)/C(=C/c2ccc(Cl)cc2)c2ccc(Cl)cc2)C(C(=O)OC)[C@]2(O)[C@@H](C(=O)OC)[C@H]1C[C@@H](c1ccccc1)[C@@H]2C(=O)OC (stereo partly specified)" reportedresult="> 100 µM (inactive)"

Enquiry: Please give measured GI50 of the following entry: `CCN(CC)CCn1ncc2c3c(=O)c4cccnc4n(CCN(CC)CC)c3ccc21`
Return: > 10 µM (inactive)

Enquiry: Retrieve GI50 measured for `Nc1nc(N)c2nc(CNc3ccc(C(=O)O)cc3)[nH]c2n1` and print it.
Return: > 100 µM (inactive)

====

- System: HL-60
- testDetails: NCI tumour cell line growth inhibition, 48 h
Activity calls are given as the source filed them. Rule as the data show it: active = GI50 up to about 1.1 µM and inactive = higher.
metric: GI50

Would you please look over these solved cases?
compound="O=P(c1ccccc1)(c1ccccc1)C1CC=C(c2ccccc2)C2(CCCC2)C1 (stereo not given)" systemtested=HL-60 reportedresult="21.6 µM (inactive)"
compound="CCCCCC(/C=N/Nc1ccccc1)C(O)(C(F)(F)F)C(F)(F)F (stereo not given)" systemtested=HL-60 reportedresult="> 100 µM (inactive)"
compound=O=[N+]([O-])c1ccc(Cl)c(/C=N/C23CC4CC(CC(C4)C2)C3)c1 systemtested=HL-60 reportedresult="2.05 µM (inactive)"

Enquiry: Specify GI50 for CN1C(=O)CCC2[C@@H]3CC=C4C[C@@H](O)CC[C@]4(C)C3CC[C@@]21C (stereo not given in full) , system HL-60.
Return: 11.5 µM (inactive)

Enquiry: For HL-60, give the measured GI50 of the entry `Cc1c(C(=O)O)oc2ccc([N+](=O)[O-])cc12`
Return: > 100 µM (inactive)

====

- Tested on: NCI-H23
- testDetails: NCI tumour cell line growth inhibition, 48 h
Calls of active or inactive are those of the source. No stated cut-off is given here; in the data, active = GI50 up to about 1.1 µM and inactive = higher.
Mark one answer only. Choices: 1.0 for active, 0.0 for inactive

Example entries and their recorded answers appear below.
compound=O=C1OC(c2ccccc2)=N/C1=C\c1ccc(F)cc1 systemtested=NCI-H23 categorylabel=0.0
compound=Cc1ccc(/C=C/C(=O)c2ccc([N+](=O)[O-])cc2)cc1 systemtested=NCI-H23 categorylabel=0.0
compound="CC(=O)OCC1OC(N2C(=S)N[C@H]([C@@H](O)[C@H](O)[C@H](O)CO)[C@H]2O)C(OC(C)=O)C(OC(C)=O)C1OC(C)=O (stereo not given in full)" systemtested=NCI-H23 categorylabel=0.0
compound="COc1ccc(CN2C(=O)C(Cc3cc(OC)c(OC)c(C)c3OC)NC(=O)/C2=C/c2cc(OC)c(OC)c(C)c2OC)cc1 (stereo not given)" systemtested=NCI-H23 categorylabel=0.0

Enquiry: Lab log entry: `CCNCCCNc1c2ccccc2nc2ccccc12` — outcome as called in the assay?
Return: 1.0

====

- System: KM-20L2
- testDetails: NCI tumour cell line growth inhibition, 48 h
Calls of active or inactive are those of the source. Cut-off read from the data, not from the text of the source: active = GI50 up to about 1.1 µM and inactive = higher.
Recorded GI50 values for a group of compounds are listed next.

compound=CC1(C)C(=O)N(CCCCCCN2C(=O)C(C)(C)c3ccccc32)c2ccccc21 reportedresult="37.2 µM (inactive)"
compound="O=c1ccc2ccccc2o1 [COUMARIN]" reportedresult="> 100 µM (inactive)"
compound=COc1ccc(C2=C(Cl)c3cc(OC)c(OC)cc3C2)cc1OC reportedresult="> 100 µM (inactive)"
compound="O=P(c1ccccc1)(c1ccccc1)C1CC=C(c2ccccc2)C2(CCCC2)C1 (stereo not given)" reportedresult="33.7 µM (inactive)"

Please look at the following compound next.
Enquiry: Give recorded GI50. CC1(C)S[C@@H]2[C@H](NC(=O)CCC[C@@H](N)C(=O)O)C(=O)N2[C@H]1C(=O)O [ADICILLIN]
Return: > 24.8 µM (inactive)

====

- Test system: SW-620
- testDetails: NCI tumour cell line growth inhibition, 48 h
The source made the active and inactive calls. Rule as the data show it: active = GI50 up to about 1.1 µM and inactive = higher.
Please reply with one of these outcomes: T for active, F for inactive

Example entries begin here.
molecule="C=C(Cl)C(Cl)(CBr)CCC(Cl)C(C)C (centres undefined)" categorylabel=F
molecule=Cc1ccc2nc(N/N=C/c3ccc(C)s3)cc(C)c2c1 categorylabel=F
molecule=O=C(c1ccccc1)n1[nH]c(=O)n(-c2ccc(Cl)cc2)c1=O categorylabel=F
molecule=C1=C2/CC[C@H](Sc3ccccc3)[C@H]2C2(CCCCC/1)OCCO2 categorylabel=F

Enquiry: Outcome? CC(=O)C(CN(C(C)C)C(C)C)C(c1ccccc1)c1c(O)c2ccccc2oc1=O (centres undefined)
Return: F

Enquiry: # fetch the recorded call for `NCc1nnn(Cc2ccccc2)c1N` here
Return: F

Enquiry: Each molecule tested received a call. Report the one for `CN(C)C(=O)O/N=C1/C(=C2/C(=O)Nc3ccccc32)Nc2ccccc21` .
Return: F

Enquiry: Hi, sorry to bother you, what did the test record for `O=C1C=Cc2cscc21` ?
Return: F

Enquiry: How did this test come out for COC(=O)[C@]1(C)CCCC2(C)C1CC[C@H]1C=C(C)[C@H]3CCC12C3 (some centres undefined) ?
Return: F

Enquiry: GET /call?item= `O=C1c2cccc3cccc(c23)C(=O)N1CCN(CCO)CCO` returns the recorded outcome of this test.
Return: F

Enquiry: Recorded test outcome, item `O=C1NC(=N/c2ccccc2)/C(=N\c2ccccc2)N1c1ccccc1`
Return: F

Enquiry: Recorded test outcome, item NC(Cc1ccc(B(O)O)cc1)C(=O)NC(CO)CO (centres undefined)
Return: F

Enquiry: Query: recorded result category for CC(C(=O)c1ccncc1)c1ccccn1 (centres undefined) in this test
Return: F

Enquiry: What did the test return for COc1cc(C2c3cc4c(cc3OC(NCCO)C2C)OCO4)cc(OC)c1OC (centres undefined) ?
Return: T

Enquiry: GET /call?item= `[O-]c1on[n+]2c1c(Nc1ccc(Cl)cc1)nc1ccccc12` returns the recorded outcome of this test.
Return: F

Enquiry: Recorded test call requested for `Brc1cc2c(cc1C1SCCS1)OCO2`
Return: F

Enquiry: Kindly provide the recorded test outcome for the following molecule: `O=Cc1c2ccccc2n2ccc3c4ccccc4[nH]c3c12`
Return: F

Enquiry: What classification did `CNC(=O)OCc1nccc2c(C)c3[nH]c4ccc(OC)cc4c3cc12` end up with in this test?
Return: F

Enquiry: Which outcome was entered for the molecule `CC1(C)C(=O)N(CCCCCCN2C(=O)C(C)(C)c3ccccc32)c2ccccc21` in this test?
Return: F

Enquiry: Hi, sorry to bother you, what did the test record for OC1COC(OCc2ccccc2)C(O)C1O (centres undefined) ?
Return: F
